# System: PC-3 prostate
# assay_explanation: NCI tumour cell line growth inhibition, 48 h; in the data active = GI50 below about 0.43 µM; inactive = the rest
// classify into active, inactive

Study these solved cases before continuing.
Prompt line: Entry CN(C)C(=O)O[C@H]1CN[C@H](C#Cc2cc3ncnc(Nc4ccc(OCc5cccc(F)c5)c(Cl)c4)c3s2)C1 : call = ?
Response line: inactive

Prompt line: Entry c1ccc2[nH]c(-c3ccc(Nc4nc(N5CCCCC5)nc(N5CCOCC5)n4)cc3)nc2c1 : call = ?
Response line: inactive

Prompt line: Entry CCOC(=O)/C(C#N)=C\C=C(/Cl)c1ccc(Cl)cc1 : call = ?
Response line: inactive

New cases:
Prompt line: Entry O=C(O)[C@@H](Cc1ccc2ccccc2c1)NC(=O)n1c2ccccc2c2ccccc21 : call = ?
Response line: inactive

Prompt line: Entry CCC1=CC2CN(C1)Cc1c([nH]c3ccccc13)[C@@](C(=O)OC)(c1cc3c(cc1OC)N(C)[C@H]1[C@@](O)(C(=O)OC)[C@H](OC(C)=O)[C@]4(CC)C=CCN5CC[C@]31[C@@H]54)C2 (stereo not given in full) : call = ?
Response line: active

###

# Test system: SF-295 CNS
# assay_explanation: NCI tumour cell line growth inhibition, 48 h
Each item that follows carries a reported TGI.

Prompt line: Report TGI for C=C1C(=O)O[C@H]2[C@H]1CC/C(COC(=O)NCC(C)c1ccc(CC(C)C)cc1)=C\CC[C@@]1(C)O[C@@H]21 (stereo not given in full)
Response line: 8.69 µM

New cases:
Prompt line: Report TGI for C[N+](C)(C)CC1CCCCC1O (stereo not given)
Response line: > 100 µM

Prompt line: Report TGI for COC(=O)[C@H](Cc1ccccc1)NC(=O)CCCCCCC(=O)NO
Response line: 44.6 µM

Prompt line: Report TGI for CN1/C(=C\C=C\C2=[N+](C)c3ccccc3C2(C)C)C(C)(C)c2ccccc21
Response line: 1.27 µM

Prompt line: Report TGI for Cc1ccc(-c2nc3nc(-c4ccc(F)cc4)nc(N4CCCNCC4)c3o2)cc1
Response line: 3.35 µM

###

Each item that follows carries a reported GI50.
# Test system: SN12C renal
# assay_explanation: NCI tumour cell line growth inhibition, 48 h

// solved cases for GI50 follow
Prompt line: Report GI50 for CNC(=O)c1nn(C)c2c1C(C)(C)Cc1cnc(Nc3ccc(N4CCN(C)CC4)cc3)nc1-2
Response line: 0.705 µM

Prompt line: Report GI50 for Cc1cc(I)cc(CN(C)CCCN2CCCC2)c1O
Response line: 46.1 µM

Prompt line: Report GI50 for COc1ccc(CN2C3CC2CN(c2ccc(-c4cc(OCC(C)(C)O)cn5ncc(C#N)c45)cn2)C3)cn1
Response line: 2.95 µM

Prompt line: Report GI50 for C=C1C(=O)O[C@H]2[C@H]1CC/C(COC(=O)NCC(C)c1ccc(CC(C)C)cc1)=C\CC[C@@]1(C)O[C@@H]21 (some centres not stated)
Response line: 1.06 µM

Prompt line: Report GI50 for CN(C)C(=O)O[C@H]1CN[C@H](C#Cc2cc3ncnc(Nc4ccc(OCc5cccc(F)c5)c(Cl)c4)c3s2)C1
Response line: 5.64 µM

Prompt line: Report GI50 for C[C@]12CC[C@@H]3c4cc(I)c(O)cc4CC[C@H]3[C@@H]1CC[C@@H]2O
Response line: 6.66 µM

Please turn your attention to the following entry.
Prompt line: Report GI50 for CCCCCCCCCCCCCCCC[N+]1(C)CCOCC1
Response line: 2.6 µM
